# assay-name: in vitro
# condition-description: human
pEC50: −log10 of the molar value.
observation-type: pEC50

INSERT INTO assay_data (smiles_notation, observation_type, test_value) VALUES
  ('Clc1cc(NCC2CC2)c2ncc(-c3ccc4[nH]ncc4c3)n2n1', 'pEC50', '< 4.31');

# ---- query compound ----
Tell me measured pEC50 for O=C(CN1CCOCC1)N[C@H]1CC[C@H](Nc2cc(Cl)nn3c(-c4ccc5[nH]ncc5c4)cnc23)CC1 please.
< 4.31

====

# experimental-target: recombinant G547 IRE1α KEN domain (Homo sapiens)
# Sequence (O75460 547-977): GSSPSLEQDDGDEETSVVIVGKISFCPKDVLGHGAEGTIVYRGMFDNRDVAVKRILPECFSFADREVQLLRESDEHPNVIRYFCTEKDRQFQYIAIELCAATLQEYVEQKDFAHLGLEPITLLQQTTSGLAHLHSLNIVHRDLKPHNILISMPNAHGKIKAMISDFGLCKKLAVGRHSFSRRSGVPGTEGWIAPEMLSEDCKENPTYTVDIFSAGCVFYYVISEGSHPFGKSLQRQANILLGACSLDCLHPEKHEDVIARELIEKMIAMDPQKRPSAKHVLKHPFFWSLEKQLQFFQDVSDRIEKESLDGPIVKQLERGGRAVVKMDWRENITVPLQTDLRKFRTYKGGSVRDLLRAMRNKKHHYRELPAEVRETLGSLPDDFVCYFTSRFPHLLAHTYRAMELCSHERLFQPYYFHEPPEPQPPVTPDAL
# assay-name: IRE1α S724 autophosphorylation assay (DELFIA)
# Assay type: biochemical
# condition-description: read-out: IRE1a autophosphorylation inhibition (DELFIA IC50 nM)
observation-type: IC50 (nM)
One number for each entry, in nM.

INSERT INTO assay_data (compound, test_value) VALUES
  ('Fc1cc(F)cc(Cn2cc(-c3ccnc4[nH]cnc34)cn2)c1 [Control A, reference compound]', 3110);

Now turn to the next compound.
Note down IC50 recorded for CC(C)Nc1cc(Cl)nn2c(-c3ccc4[nH]ncc4c3)cnc12 [compound 33]
276

====

# experimental-target: IRE1β (Homo sapiens, UniProt Q76MJ5)
# Sequence (Q76MJ5 35-926): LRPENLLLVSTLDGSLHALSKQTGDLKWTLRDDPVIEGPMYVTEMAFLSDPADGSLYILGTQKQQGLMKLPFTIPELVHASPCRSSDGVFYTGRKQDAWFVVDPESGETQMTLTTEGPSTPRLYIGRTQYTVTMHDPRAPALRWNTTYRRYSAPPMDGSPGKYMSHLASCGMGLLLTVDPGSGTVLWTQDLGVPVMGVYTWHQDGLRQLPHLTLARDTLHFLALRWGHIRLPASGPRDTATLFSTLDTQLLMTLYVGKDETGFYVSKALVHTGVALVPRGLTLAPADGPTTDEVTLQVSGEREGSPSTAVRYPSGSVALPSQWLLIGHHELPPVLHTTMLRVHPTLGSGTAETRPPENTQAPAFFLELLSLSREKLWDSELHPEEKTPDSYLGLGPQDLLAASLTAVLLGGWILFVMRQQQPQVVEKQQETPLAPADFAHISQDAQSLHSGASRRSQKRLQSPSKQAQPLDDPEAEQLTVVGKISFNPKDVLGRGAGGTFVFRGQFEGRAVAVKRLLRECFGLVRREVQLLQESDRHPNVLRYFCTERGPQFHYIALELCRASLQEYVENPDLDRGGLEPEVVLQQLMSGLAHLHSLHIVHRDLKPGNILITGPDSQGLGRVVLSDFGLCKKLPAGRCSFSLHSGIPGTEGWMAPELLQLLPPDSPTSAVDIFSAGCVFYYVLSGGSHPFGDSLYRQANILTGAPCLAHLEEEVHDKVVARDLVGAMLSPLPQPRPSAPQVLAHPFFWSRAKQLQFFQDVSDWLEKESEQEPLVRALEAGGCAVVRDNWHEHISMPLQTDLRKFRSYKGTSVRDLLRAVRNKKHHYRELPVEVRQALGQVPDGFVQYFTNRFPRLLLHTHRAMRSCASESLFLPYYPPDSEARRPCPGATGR
Would you mind telling me the reported pIC50 of each entry?
One number for each entry, as −log10 of the molar value.

INSERT INTO results (compound, test_value) VALUES
  ('O=C(CN1CCOCC1)N[C@H]1CC[C@H](Nc2cc(Cl)nn3c(-c4ccc5[nH]ncc5c4)cnc23)CC1 [compound 26]', 6.46);

Identify pIC50 associated with the compound CN1CCC(CNc2cc(Cl)nn3c(-c4cc5nc(Nc6ccccc6)[nH]c5cc4F)cnc23)CC1 [compound 31]
5.11

====

# assay-name: Aqueous buffer solubility (KSol)
I'd be grateful if you could share measured solubility for these entries.
One number for each entry, in µM.

INSERT INTO assay_data (smiles_notation, unit, test_value) VALUES
  ('CN1CCC(CNc2cc(Cl)nn3c(-c4cc5nc(Nc6ccccc6)[nH]c5cc4F)cnc23)CC1', 'µM', 38);

Please examine the following record next.
Recall and state the measured solubility for O=C(CN1CCOCC1)N[C@H]1CC[C@H](Nc2cc(Cl)nn3c(-c4ccc5[nH]ncc5c4)cnc23)CC1 .
80
